- SYSTEM: human GIP receptor (hGIPR) (Homo sapiens)
- Construct: expressed in transfected cells
- Sequence (P48546 22-466): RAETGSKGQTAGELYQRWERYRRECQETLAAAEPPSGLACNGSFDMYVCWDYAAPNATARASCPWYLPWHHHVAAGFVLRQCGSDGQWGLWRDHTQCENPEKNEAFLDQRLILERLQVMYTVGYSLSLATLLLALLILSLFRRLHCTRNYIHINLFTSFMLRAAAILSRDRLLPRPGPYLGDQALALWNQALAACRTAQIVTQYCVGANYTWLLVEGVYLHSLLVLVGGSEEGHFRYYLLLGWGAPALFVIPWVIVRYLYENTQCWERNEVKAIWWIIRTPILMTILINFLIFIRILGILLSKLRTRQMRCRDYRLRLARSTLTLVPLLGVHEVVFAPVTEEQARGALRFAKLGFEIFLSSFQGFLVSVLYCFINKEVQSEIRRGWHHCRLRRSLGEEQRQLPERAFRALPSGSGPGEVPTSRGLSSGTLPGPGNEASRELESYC
- PROTOCOL DETAILS: GIP receptor assay, method A (CRE-luciferase reporter, BHK cells)
- Type: cell-based
- CONDITION SUMMARY: method A, absence of HSA; read-out: hGIPR Potency, no HSA, EC50
- Method: To assess how the activation of the receptors is potentially influenced by the presence of human serum albumin (HSA), the in vitro assays were performed in the absence of HSA and presence of 1% (w/v) HSA. Unless stated otherwise the reference to the “GIP receptor assay as described in Example 4” throughout the specification shall refer to the described herein assay procedure method A (hGIPR assay) in the absence of HSA. […]
Numbered stars: 1 amine (or outer) side, 2 acyl side, 3 side chain; on linkers, the order of the positions; unused ones are H or OH. Square brackets hold non-standard residues; d marks the D form. Side chains are listed from the residue outwards. * marks the point of attachment. C20 diacid = O=C(O)CCCCCCCCCCCCCCCCCCC(=O)*; C18 diacid = O=C(O)CCCCCCCCCCCCCCCCC(=O)*; γGlu = O=C(O)[C@H](CCC(=O)[*:2])N[*:1]; AEEA = NCCOCCOCC(=O)O; Aib = CC(C)(N)C(=O)O
Listed here are substances together with their documented pEC50.
Quick note: pEC50 means taking -log10 of the concentration in moles per liter.

Consider the following illustrative entries.
SUBSTANCE | QUANTITATIVE RESULT
Y[Aib]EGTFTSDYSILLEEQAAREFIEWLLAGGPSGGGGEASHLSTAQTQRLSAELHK([AEEA-AEEA-γGlu-C20 diacid])LATLPRTETGSGSP-NH2 [Compound 96] | 11.44
Y[Aib]EGTFTSDYSILLEEQAAREFIEWLLAGGPSSGAGQAPGQAPGASHLSTAALARLSAELHK([AEEA-AEEA-γGlu-C18 diacid])LATLPRTETGSGSP-NH2 [Compound 114] | 11.37
Y[Aib]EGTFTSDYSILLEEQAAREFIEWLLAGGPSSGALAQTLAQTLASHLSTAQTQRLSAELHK([AEEA-AEEA-γGlu-C18 diacid])LATLPRTETGSGSP-NH2 [Compound 48] | 11.15
Y[Aib]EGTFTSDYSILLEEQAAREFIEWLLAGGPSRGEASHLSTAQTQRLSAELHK([AEEA-AEEA-γGlu-C20 diacid])LATLPRTETGSGSP-NH2 [Compound 94] | 11.54
Y[Aib]EGTFTSDYSILLEEQAAREFIEWLLAGGPSSGALQAPGQAPLASHLSTAQTARLSAELHK([AEEA-AEEA-γGlu-C18 diacid])LATLPRTETGSGSP-NH2 [Compound 105] | 11.51
H[Aib]HGTFTSDYSILLEEQAAREFIEWLLAGGPSSGAGQAPGQAPGASHLSTAQTQRLSAELHRLATLPK([AEEA-AEEA-γGlu-C18 diacid])TETGSGSP-NH2 [Compound 92] | 11.51

// query Which pEC50 value belongs to H[Aib]HGTFTSDYSILLEEQAAREFIEWLLAGGPSRGAPPPSGGGEASHLSTQTQGRLSAELHK([AEEA-AEEA-γGlu-C18 diacid])LATLPRTETGSGSP-NH2 [Compound 71] ?
// result 11.56

// query Which pEC50 value belongs to Y[Aib]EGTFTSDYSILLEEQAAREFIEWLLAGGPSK([AEEA-AEEA-γGlu-C18 diacid])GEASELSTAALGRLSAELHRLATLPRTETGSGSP-NH2 [Compound 19] ?
// result 11.03

// query Which pEC50 value belongs to H[Aib]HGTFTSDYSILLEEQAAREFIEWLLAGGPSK([AEEA-AEEA-γGlu-C18 diacid])GEASQLSTAALGRLSAELHQLATLPRTETGSGSP-NH2 [Compound 64] ?
// result 11.69

// query Which pEC50 value belongs to H[Aib]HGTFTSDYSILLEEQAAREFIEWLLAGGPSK([AEEA-AEEA-γGlu-C18 diacid])GEASQLSTAALGRLSAELHRLATLPRTETGSGSP-NH2 [Compound 73] ?
// result 11.30

// query Which pEC50 value belongs to Y[Aib]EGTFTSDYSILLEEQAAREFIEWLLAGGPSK([AEEA-AEEA-γGlu-C18 diacid])GEASELSTAALARLSAELHRLATLPRTETGSGSP-NH2 [Compound 28] ?
// result 11.46

* * *

- SYSTEM: human amylin receptor (hAMYR3) (Homo sapiens, UniProt O60896+P30988)
- Construct: host or cells: BHK cells (Hollex-1 line expressing hCTR(a) and CRE-Luc), further transfected with human RAMP3
- Sequence (P30988 25-474): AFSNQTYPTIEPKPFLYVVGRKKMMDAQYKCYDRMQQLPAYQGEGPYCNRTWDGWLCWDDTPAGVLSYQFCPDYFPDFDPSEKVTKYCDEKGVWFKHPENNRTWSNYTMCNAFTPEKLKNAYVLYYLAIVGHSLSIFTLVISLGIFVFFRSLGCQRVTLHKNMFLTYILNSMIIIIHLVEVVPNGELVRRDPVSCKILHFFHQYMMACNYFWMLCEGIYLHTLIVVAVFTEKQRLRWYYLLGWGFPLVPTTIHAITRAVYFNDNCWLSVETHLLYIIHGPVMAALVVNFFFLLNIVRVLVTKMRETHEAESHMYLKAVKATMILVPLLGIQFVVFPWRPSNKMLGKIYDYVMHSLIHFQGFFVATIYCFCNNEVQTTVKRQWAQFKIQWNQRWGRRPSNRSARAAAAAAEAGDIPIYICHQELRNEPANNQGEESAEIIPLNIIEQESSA
- Sequence (O60896 24-148): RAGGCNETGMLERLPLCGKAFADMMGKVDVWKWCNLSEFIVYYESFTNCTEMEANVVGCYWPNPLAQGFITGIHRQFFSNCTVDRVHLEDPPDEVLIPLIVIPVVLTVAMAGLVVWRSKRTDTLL
- PROTOCOL DETAILS: Amylin receptor assay, method A (CRE-luciferase reporter, BHK cells)
- Format: cell-based
- CONDITION SUMMARY: hAMYR3 Potency, 1% HSA, EC50, method A, in the presence of 1% HSA
pEC50: −log10 of the molar value. Numbered stars: 1 amine (or outer) side, 2 acyl side, 3 side chain; on linkers, the order of the positions; unused ones are H or OH. Square brackets hold non-standard residues; d marks the D form. Side chains are listed from the residue outwards. * marks the point of attachment. C20 diacid = O=C(O)CCCCCCCCCCCCCCCCCCC(=O)*; C18 diacid = O=C(O)CCCCCCCCCCCCCCCCC(=O)*; C16 diacid = O=C(O)CCCCCCCCCCCCCCC(=O)*; γGlu = O=C(O)[C@H](CCC(=O)[*:2])N[*:1]; AEEA = NCCOCCOCC(=O)O; Aib = CC(C)(N)C(=O)O
Values of pEC50 greater than or equal to 10 map to fulfilled; values below map to not fulfilled.

# count of solved cases: 2
SUBSTANCE | SYSTEM | GROUP LABEL
Y[Aib]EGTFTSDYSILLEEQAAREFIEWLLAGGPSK([AEEA-AEEA-γGlu-C16 diacid])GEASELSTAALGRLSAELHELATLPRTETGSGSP-NH2 [Compound 11] | human amylin receptor (hAMYR3) (Homo sapiens, UniProt O60896+P30988) | not fulfilled
H[Aib]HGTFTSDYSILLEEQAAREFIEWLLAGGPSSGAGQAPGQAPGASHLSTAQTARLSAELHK([AEEA-AEEA-γGlu-C20 diacid])LATLPRTETGSGSP-NH2 [Compound 104] | human amylin receptor (hAMYR3) (Homo sapiens, UniProt O60896+P30988) | not fulfilled

Shift focus to the following entry.
// query Is the recorded value of pEC50 equal to or greater than 10 for this substance? Y[Aib]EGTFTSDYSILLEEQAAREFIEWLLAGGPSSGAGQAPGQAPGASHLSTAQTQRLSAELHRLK([AEEA-AEEA-γGlu-C18 diacid])TLPRTETGSGSP-NH2 [Compound 56]
// result fulfilled

* * *

- SYSTEM: human GIP receptor (hGIPR) (Homo sapiens)
- Construct: expressed in transfected cells
- Sequence (P48546 22-466): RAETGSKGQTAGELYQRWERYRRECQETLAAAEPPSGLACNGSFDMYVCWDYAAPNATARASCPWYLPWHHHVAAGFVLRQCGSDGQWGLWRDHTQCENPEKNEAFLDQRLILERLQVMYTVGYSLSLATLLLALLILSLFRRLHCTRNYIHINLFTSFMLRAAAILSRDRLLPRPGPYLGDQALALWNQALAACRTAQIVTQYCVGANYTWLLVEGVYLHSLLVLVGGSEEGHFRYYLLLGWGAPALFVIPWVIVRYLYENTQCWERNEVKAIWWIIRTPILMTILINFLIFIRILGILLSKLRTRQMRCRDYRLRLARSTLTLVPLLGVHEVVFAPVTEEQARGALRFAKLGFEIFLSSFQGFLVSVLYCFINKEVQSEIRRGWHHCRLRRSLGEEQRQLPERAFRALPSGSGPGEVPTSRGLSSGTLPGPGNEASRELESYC
- PROTOCOL DETAILS: GIP receptor assay, method A (CRE-luciferase reporter, BHK cells)
- Type: cell-based
- CONDITION SUMMARY: hGIPR Potency, no HSA, EC50, method A, absence of HSA
Numbered stars: 1 amine (or outer) side, 2 acyl side, 3 side chain; on linkers, the order of the positions; unused ones are H or OH. Square brackets hold non-standard residues; d marks the D form. Side chains are listed from the residue outwards. * marks the point of attachment. C18 diacid = O=C(O)CCCCCCCCCCCCCCCCC(=O)*; γGlu = O=C(O)[C@H](CCC(=O)[*:2])N[*:1]; AEEA = NCCOCCOCC(=O)O; Aib = CC(C)(N)C(=O)O
RESULT TYPE: pEC50
Quick note: pEC50 means taking -log10 of the concentration in moles per liter.

Consider the following illustrative entries.
SUBSTANCE | RESULT TYPE | QUANTITATIVE RESULT
H[Aib]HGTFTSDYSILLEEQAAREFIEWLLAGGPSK([AEEA-AEEA-γGlu-C18 diacid])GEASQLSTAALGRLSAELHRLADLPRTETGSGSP-NH2 [Compound 43] | pEC50 | 11.36
Y[Aib]EGTFTSDYSILLEEQAAREFIEWLLAGGPSSGAGQAPGQAPGASK([AEEA-AEEA-γGlu-C18 diacid])LSTAQTQRLSAELHRLATLPRTETGSGSP-NH2 [Compound 54] | pEC50 | 11.25

# context switch: different substance, same pEC50
// query Which pEC50 value belongs to H[Aib]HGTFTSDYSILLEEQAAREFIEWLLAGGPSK([γGlu-C18 diacid])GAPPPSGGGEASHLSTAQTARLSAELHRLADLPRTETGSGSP-NH2 [Compound 112] ?
// result 11.62
